Ref: patent US10442804B2

# Test system: HBV-infected NTCP-HepG2 cells, secreted HBsAg
# method-summary: microbe, parasite or virus in culture
# Assay type: cell-based, hepatitis B virus (genotype D, AD38-derived)
# assay-conditions: Hepatitis B virus, 120 h, secreted HBsAg in supernatant after 5 days; geometric mean of minimum four determinations; read-out: NTCP HBsAg EC50
# Experimental: NTCP-HepG2 Antiviral Assay for Secreted HBsAg HepG2 cells stably expressing sodium-taurocholate cotransporting polypeptide (NTCP-HepG2) were grown in Dulbecco's Modified Eagle Medium (DMEM) without sodium pyruvate (Thermo Fisher Scientific, Waltham, Mass.) supplemented with 10% fetal bovine serum, 2 mM L-glutamine, 1% penicillin/streptomycin, and 0.25 mg/mL G-418. […] After an incubation time of 5 days, cell culture supernatant was collected and measured for HBsAg. […]
pEC50: −log10 of the molar value.
The recorded pEC50 of each item maps onto one of these classes: small value: < 8; mid value: ≥ 8 and < 9; large value: ≥ 9

compound: COCCCOc1cc2c(cc1Cl)-c1cc(=O)c(C(=O)O)cn1N1[C@@H]2CC[C@@H]1C (single isomer, unassigned)
assay-system: HBV-infected NTCP-HepG2 cells, secreted HBsAg
assigned-label: mid value

compound: COCCCOc1cc2c(cc1OC(F)F)-c1cc(=O)c(C(=O)O)cn1N1[C@H]2CCC1(C)C (single isomer, unassigned)
assay-system: HBV-infected NTCP-HepG2 cells, secreted HBsAg
assigned-label: small value

compound: COCCCOc1cc2c(cc1Cl)-c1cc(=O)c(C(=O)O)cn1N1[C@H](C)CC[C@@H]21 (single isomer, unassigned)
assay-system: HBV-infected NTCP-HepG2 cells, secreted HBsAg
assigned-label: small value

compound: CC1(C)CC[C@@H]2c3cc(OCC45CC(C#N)(C4)C5)c(OC(F)(F)F)cc3-c3cc(=O)c(C(=O)O)cn3N21
assay-system: HBV-infected NTCP-HepG2 cells, secreted HBsAg
assigned-label: mid value

compound: CCc1cc2c(cc1OCC13CC(C#N)(C1)C3)[C@H]1CCC(C)(C)N1n1cc(C(=O)O)c(=O)cc1-2
assay-system: HBV-infected NTCP-HepG2 cells, secreted HBsAg
assigned-label: large value

compound: COCCCOc1cc2c(cc1OC(C)(C)C)-c1cc(=O)c(C(=O)O)cn1N1[C@H]2CCC1(C)C
assay-system: HBV-infected NTCP-HepG2 cells, secreted HBsAg
assigned-label: small value
